Reference for the values: patent US20250129430A1

test system: SNU668; assay: Cell viability drug screen, 12-point dose-response AUC; format: cell-based, human; details: SNU668 cells (SEM subtype); 72 hours
Structures can show the parent of a compound that is named as a salt.
Provide the reported Average Area Under the Viability Curve (AUC), AUC norm value of each item.

Q: Endpoint output: Average Area Under the Viability Curve (AUC), AUC norm value of O=C(/C=C/c1cccc(S(=O)(=O)Nc2ccccc2)c1)NO [Belinostat (PXD101), Belinostat] . Value?
Result: 0.6908

Q: Endpoint output: Average Area Under the Viability Curve (AUC), AUC norm value of c1ccc2c(-c3cnn4cc(-c5ccc(N6CCNCC6)cc5)cnc34)ccnc2c1 [LDN193189] . Value?
Result: 0.06394

Q: Endpoint output: Average Area Under the Viability Curve (AUC), AUC norm value of CC[C@]1(O)C[C@@H]2CN(CCc3c([nH]c4ccccc34)[C@@](C(=O)OC)(c3cc4c(cc3OC)N(C)[C@H]3[C@@](O)(C(=O)OC)[C@H](OC(C)=O)[C@]5(CC)C=CCN6CC[C@]43[C@@H]65)C2)C1 [Vinblastine] . Value?
Result: −1.037

Q: Endpoint output: Average Area Under the Viability Curve (AUC), AUC norm value of CC[C@@]1(O)C(=O)OCc2c1cc1n(c2=O)Cc2cc3c(CN(C)C)c(O)ccc3nc2-1 [Topotecan HCI, Topotecan HCl] . Value?
Result: −1.128

Q: Endpoint output: Average Area Under the Viability Curve (AUC), AUC norm value of CC[C@@]1(O)C(=O)OCc2c1cc1n(c2=O)Cc2cc3ccccc3nc2-1 [Camptothecin] . Value?
Result: −1.202

Q: Endpoint output: Average Area Under the Viability Curve (AUC), AUC norm value of Nc1nc(F)nc2c1ncn2[C@@H]1O[C@H](COP(=O)(O)O)[C@@H](O)[C@@H]1O [Fludarabine Phosphate (Fludara), Fludarabine Phosphate] . Value?
Result: −1.511
